Source of measurements: patent US7981903B2

Listing of entries alongside the reported IC50.
# TARGET: human IGF1R (hIGF1R) (Homo sapiens)
# Construct: containing amino acid residues 957-1367 of human IGF1R; made in house; host or cells: Sf9 cells (baculovirus)
# Sequence (P08069 957-1367): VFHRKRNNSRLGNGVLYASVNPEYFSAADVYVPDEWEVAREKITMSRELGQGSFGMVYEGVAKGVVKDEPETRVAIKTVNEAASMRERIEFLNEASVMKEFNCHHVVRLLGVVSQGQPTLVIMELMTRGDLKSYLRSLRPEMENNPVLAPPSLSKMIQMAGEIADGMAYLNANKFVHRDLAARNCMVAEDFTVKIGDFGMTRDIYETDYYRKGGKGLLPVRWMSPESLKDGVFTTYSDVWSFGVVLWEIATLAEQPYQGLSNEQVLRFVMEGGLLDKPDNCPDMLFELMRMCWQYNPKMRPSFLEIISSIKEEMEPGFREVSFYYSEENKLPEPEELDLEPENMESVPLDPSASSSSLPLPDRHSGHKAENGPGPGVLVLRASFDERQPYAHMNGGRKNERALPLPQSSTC
# PROCEDURE_TEXT: TR-FRET kinase assay of purified hIGF1R
# Type: biochemical
# CONDITION_SUMMARY: activated hIGF1R 0.5 nM, 10 μM ATP, values given as pIC50 category, read-out: IGF-1R pIC50 (converted)
# Protocol: Time Resolved Fluorescence Resonance Energy Transfer (TR-FRET) assays were carried out on the exemplified compounds as follows: Purity is determined by HPLC. The calculated molecular mass of the peptide is 2216 dalton. […] True peptide concentration is determined by amino acid analysis. […] Assays are performed in 384-well (Greiner, Catalog No. 784076) microtiter plates. […] Compounds, titrated in DMSO, are evaluated at eleven concentrations ranging from 50 μM to 0.2 nM. […]

MOL: CCNC(=O)c1c(F)cccc1Nc1nc(Nc2cc3c(cc2OC)CCN3C(=O)CN(C)C)nc2[nH]ccc12
TARGET: human IGF1R (hIGF1R) (Homo sapiens)
IC50: 1.26 to 3.98 nM
//
MOL: COc1cc2c(cc1Nc1nc(Nc3ccc(F)c(F)c3C(=O)NC(C)C)c3cc[nH]c3n1)N(C(=O)CN(C)C)CCC2
TARGET: human IGF1R (hIGF1R) (Homo sapiens)
IC50: 5.01 to 200 nM
//
MOL: COc1cc2c(cc1Nc1nc(Nc3cc(F)cc(F)c3C(N)=O)c3cc[nH]c3n1)N(C(=O)CN(C)C)CCC2
TARGET: human IGF1R (hIGF1R) (Homo sapiens)
IC50: 0.251 to 1 nM
//
MOL: COc1cc2c(cc1Nc1nc(Nc3cccc(F)c3C(N)=O)c3cc[nH]c3n1)N(C(=O)CN(C)C)[C@@H](C)C2
TARGET: human IGF1R (hIGF1R) (Homo sapiens)
IC50: 0.251 to 1 nM
//
MOL: COc1cc(N2CCN(C(C)C)CC2)c(OC)cc1Nc1nc(Nc2cc(F)ccc2C(N)=O)c2cc[nH]c2n1
TARGET: human IGF1R (hIGF1R) (Homo sapiens)
IC50: 1.26 to 3.98 nM
//
MOL: COc1cc2ccn(CC(=O)N(C)C)c2cc1Nc1nc(Nc2cccc(F)c2C(N)=O)c2cc[nH]c2n1
TARGET: human IGF1R (hIGF1R) (Homo sapiens)
IC50: 5.01 to 200 nM
//
MOL: COCCN(C)CC(=O)N1CCc2cc(OC)c(Nc3nc(Nc4cccc(F)c4C(N)=O)c4cc[nH]c4n3)cc21
TARGET: human IGF1R (hIGF1R) (Homo sapiens)
IC50: 0.251 to 1 nM
